system: M14 melanoma; experiment: NCI-60 one-dose screen, 48 h (100 = growth as untreated, 0 = no growth, -100 = all killed); details: 10 µM unless noted
Compounds without any hit were thinned out: in the full panel of roughly 83,000, 20% have a hit.
ENDPOINT_LABEL: growth (%)

[[record]]
compound = "N#C/C(=C/C=C/c1ccccc1)S(=O)c1ccccc1 (centres undefined)"
measured_target = "M14 melanoma"
measured = -55.5

[[record]]
compound = "CC(=O)[C@H]1CC[C@]2(C)[C@@H]1CC[C@@H]1[C@@]3(C)C/C(=C/c4cccnc4)C(=O)C(C)(C)[C@@H]3CC[C@]12C"
measured_target = "M14 melanoma"
measured = 71.8

[[record]]
compound = "COc1ccc(CNc2c3ccccc3nc3ccccc23)cc1OC"
measured_target = "M14 melanoma"
measured = 17.7

[[record]]
compound = "CNc1nc2ncc(-c3c(C)noc3C)cc2n1Cc1ccccc1"
measured_target = "M14 melanoma"
measured = 31.5

[[record]]
compound = "O=C(Nc1ncc(Cc2ccccc2Cl)s1)c1ccc2c(c1)OCCO2"
measured_target = "M14 melanoma"
measured = 10.3

[[record]]
compound = "Cc1nc2c(c(-c3ccccc3)n1)Cc1c(ccc3ccccc13)O2"
measured_target = "M14 melanoma"
measured = 104

[[record]]
compound = "Brc1ccc(-c2nn(-c3ccccc3)cc2-c2nn[nH]n2)s1"
measured_target = "M14 melanoma"
measured = 96.9

[[record]]
compound = "C=C(C)[C@@H]1CC[C@]2(C#N)CC[C@]3(C)[C@H](CC[C@@H]4[C@@]5(C)CCCNC(C)(C)[C@@H]5CC[C@]43C)[C@@H]12"
measured_target = "M14 melanoma"
measured = 64.4

[[record]]
compound = "CCCn1cnc2c(c1=N)C(c1ccc(Cl)cc1)c1sc3c(F)cccc3c1O2 (centres undefined)"
measured_target = "M14 melanoma"
measured = 70.7

[[record]]
compound = "NS(=O)(=O)Oc1cccc(-c2nc3sccn3c2-c2ccccc2)c1"
measured_target = "M14 melanoma"
measured = 20.4

[[record]]
compound = "Cn1cc(-c2ccc3c(Nc4cccc(NC(=O)Nc5cccc(F)c5)c4)ncnc3c2)cn1"
measured_target = "M14 melanoma"
measured = 41.3

[[record]]
compound = "NC(=N\\N=C/c1ccc(Cl)cc1Cl)/C(N)=N\\N=C/c1ccc(Cl)cc1Cl"
measured_target = "M14 melanoma"
measured = 105

[[record]]
compound = "O=[N+]([O-])c1ccc(Oc2cccc3c(Oc4ccc([N+](=O)[O-])cc4[N+](=O)[O-])cccc23)c([N+](=O)[O-])c1"
measured_target = "M14 melanoma"
measured = 93.3

[[record]]
compound = "C=C1C(=O)O[C@H]2[C@H]1CC/C(CNC(=O)/C=C/c1cc(OC)c(OC)c(OC)c1)=C\\CC[C@@]1(C)O[C@@H]21"
measured_target = "M14 melanoma"
measured = -32.3

[[record]]
compound = "O=C(O)c1nn(-c2ccc(Cl)cc2)nc1N1CCCC1"
measured_target = "M14 melanoma"
measured = 96.7

[[record]]
compound = "N=C(N)c1ccc(-c2ccc(-c3ccccc3)s2)nc1"
measured_target = "M14 melanoma"
measured = 88.7

[[record]]
compound = "CCCCCCCCCCCCCC[n+]1ccc2c(C)c3c(c(C)c2c1)c1cc(O)ccc1n3CC"
measured_target = "M14 melanoma"
measured = -86.7

[[record]]
compound = "CC/C(=C(/c1ccc(Cl)cc1)c1ccc(OCCN(CC)CC)cc1)c1ccc(OC)cc1"
measured_target = "M14 melanoma"
measured = 34.5

[[record]]
compound = "CCOC(=O)CC1C(CNC(=O)NC)OC(n2cnc3c(NC(=O)Nc4ccccc4)ncnc32)C1O[Si](C)(C)C(C)(C)C (centres undefined)"
measured_target = "M14 melanoma"
measured = 67.3


Taken from PubChem BioAssay (NCI).
